tested on: AURKC; settings: concentration: 1 μM, replicates: in singlicate; n = 1;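 also: KINOMEscan kinase panel screen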
readoutType: %Inh (%)

| molecule | target | numericReadout |
| --- | --- | --- |
| Nc1n[nH]c2nnc(-c3ccccc3)cc12 | AURKC | 0 |
| CNc1nccc(-c2c(-c3ccc(F)cc3)ncn2CCCN2CCOCC2)n1 | AURKC | 21 |
| Cc1cccc(-c2nc(Nc3ccc4[nH]nnc4c3)c3ccccc3n2)n1 | AURKC | 0 |
| FC(F)(F)c1ccc(-c2cc(-c3c[nH]nc3-c3ccccn3)ccn2)cc1 | AURKC | 14 |
| Oc1ccc2ncnc(Nc3ccc(OCc4ccccc4)cc3)c2c1 | AURKC | 34 |
| COc1ccc(Nc2nccc(N3CCC(NC(=O)c4cccc(NC(C)=O)c4)C3)n2)cc1 (stereo not drawn) | AURKC | 1 |
| CCC(CC)(CC)n1cnc2c(N)ncnc21 | AURKC | 0 |
| Clc1ccc(-c2cc(-c3c[nH]nc3-c3ccccn3)ccn2)cc1 | AURKC | 17 |
| O=C(CCO)NCCn1ccc2ncnc(Nc3ccc(Oc4cccc(C(F)(F)F)c4)c(Cl)c3)c21 | AURKC | 0 |
